- Test system: Staphylococcus aureus
- protocol text: Antibacterial activity against Staphylococcus aureus ATCC 13709
- Format: functional
# note: boundary value 0.5 µg/mL maps to Condition not met; MIC below it maps to Condition met

CCO/N=C1\CCN(c2nc3c(cc2F)c(=O)c(C(=O)O)cn3-c2ccc(F)cc2F)CC1CN (racemic) = Condition met
CCO/N=C1\CCN(c2c(F)cc3c(=O)c(C(=O)O)cn(CC)c3c2F)CC1CN (racemic) = Condition not met

Q. Dear colleague, could you confirm whether MIC of CO/N=C1\CCN(c2c(F)cc3c(=O)c(C(=O)O)cn(CCF)c3c2F)CC1CN (racemic) falls below 0.5 µg/mL? Thanks.
A. Condition not met

Q. In plain terms, does CCO/N=C1\CCN(c2c(F)cc3c(=O)c(C(=O)O)cn(C4CC4)c3c2OC(F)F)CC1CN (racemic) come in under 0.5 µg/mL for MIC?
A. Condition not met

Q. Could you please tell me whether MIC recorded for CCO/N=C1\CCN(c2c(F)cc3c(=O)c(C(=O)O)cn(CCF)c3c2F)CC1CN (racemic) is less than 0.5 µg/mL?
A. Condition not met

Q. Consider the compound C[C@H]1COc2c(N3CCN(C)CC3)c(F)cc3c(=O)c(C(=O)O)cn1c23.C[C@H]1COc2c(N3CCN(C)CC3)c(F)cc3c(=O)c(C(=O)O)cn1c23.O [LEVOFLOXACIN] . Is its MIC strictly less than 0.5 µg/mL?
A. Condition met

---

- Test system: Proteus vulgaris
- protocol text: Antibacterial activity against Proteus vulgaris 56
- Assay type: functional
attribute measured: MIC (µg/mL)
Lab book: enter the figure in µg/mL, no units written.

Use these answered entries as a reference point.
CO/N=C1\CCN(c2nc3c(cc2F)c(=O)c(C(=O)O)cn3-c2ccc(F)cc2F)CC1CN (racemic) = 8
CCO/N=C1\CCN(c2nc3c(cc2F)c(=O)c(C(=O)O)cn3-c2ccc(F)cc2F)CC1CN (racemic) = 4

Q. Provide only the value of recorded MIC for CO/N=C1\CCN(c2c(F)cc3c(=O)c(C(=O)O)cn(CCF)c3c2F)CC1CN (racemic)
A. 16

---

- Test system: Enterococcus faecalis
- protocol text: Antibacterial activity against vancomycin-resistant Enterococcus faecalis EFL1004
- Assay type: functional
Field 'label' (enum: satisfied / not satisfied). Set to satisfied when MIC is strictly under 4 µg/mL; else not satisfied.

CCO/N=C1\CCN(c2c(F)cc3c(=O)c(C(=O)O)cn(C4CC4)c3c2F)CC1CN (racemic) = satisfied

Q. Does the reported MIC of the following molecule sit strictly below 4 µg/mL? CCO/N=C1\CCN(c2c(F)cc3c(=O)c(C(=O)O)cn(CCF)c3c2F)CC1CN (racemic)
A. not satisfied

Q. Report whether reported MIC is lower than 4 µg/mL (strictly) for CCn1cc(C(=O)O)c(=O)c2cc(F)c(N3CC/C(=N\OC)C(CN)C3)c(F)c21 (racemic)
A. not satisfied

Q. Confirm or reject: MIC of CO/N=C1\CCN(c2c(F)cc3c(=O)c(C(=O)O)cn(CCF)c3c2F)CC1CN (racemic) lies strictly below 4 µg/mL
A. not satisfied

---

- System: Staphylococcus aureus
- protocol text: Antibacterial activity against methicillin-sensitive Staphylococcus aureus 08-49
- Assay type: functional
attribute measured: MIC (µg/mL)
State the answer as a number, implicitly in µg/mL.

CCO/N=C1\CCN(c2c(F)cc3c(=O)c(C(=O)O)cn(C4CC4)c3c2OC(F)F)CC1CN (racemic) = 0.25

Q. Indicate its recorded MIC; the compound in question is CO/N=C1\CCN(c2c(F)cc3c(=O)c(C(=O)O)cn(CCF)c3c2F)CC1CN (racemic)
A. 2

Q. Please supply the value of reported MIC for the item CCO/N=C1\CCN(c2c(F)cc3c(=O)c(C(=O)O)cn(CCF)c3c2F)CC1CN (racemic)
A. 8

Q. Identify the reported MIC for the following entry. CCO/N=C1\CCN(c2c(F)cc3c(=O)c(C(=O)O)cn(CC)c3c2F)CC1CN (racemic)
A. 4
